Biological target: T1, human IL-1α (human, UniProt P01583 113-271)
T1 construct: also called IL-1alpha; hIL-1α
T1 sequence (looked up): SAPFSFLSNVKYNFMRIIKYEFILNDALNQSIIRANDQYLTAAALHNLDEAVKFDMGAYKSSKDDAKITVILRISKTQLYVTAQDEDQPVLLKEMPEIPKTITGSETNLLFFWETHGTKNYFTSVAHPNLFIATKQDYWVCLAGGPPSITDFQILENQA
Assay: Table 62 IC50; RBA presumed
pIC50: −log10 of the molar value.
measurement type: pIC50

I. ABT1-142 (other, VK dAb) VL: DIQMTQSPSSLSASVGDRVTITCRASQSINDVLAWYQQKPGKAPRLLIYSASYLQSGVPSRFSGSGSGTDFTLTISSLQPEDFATYYCQQYISLPFTFGQGTKVEIKR
II. ABT1-95-6 (other, VK dAb) VL: DIQMTQSPSSLSASVGDRVTITCRASQPIQGNLRWYQQKPGKAPKLLIYSSSYLESGVPSRFSGSGSGTDFTLTISSLQPEDFATYHCQQGYRWPVTFGQGTKVEIKR
Prompt: Of I and II , which shows the smaller pIC50 value? Identify your pick by its label.
Response: I
(I: 6.70, II: 9.10)
